Test system: CAKI-1
Assay: NCI tumour cell line growth inhibition, 48 h
Activity calls are given as the source filed them. No stated cut-off is given here; in the data, active = GI50 up to about 1.1 µM and inactive = higher.
parameter-measured: GI50

Below: 2 molecules and their reported GI50.
[[record]]
molecule = "O=C(CC(=O)c1cccc2ccccc12)C(=O)Nc1ccc(Cl)cc1"
tested_system = "CAKI-1"
endpoint_result = "> 100 µM (inactive)"

[[record]]
molecule = "CCC12CCCN(Cc3ccccc3)C1c1c(n(C)c3ccccc13)CC2 (centres undefined)"
tested_system = "CAKI-1"
endpoint_result = "> 253 µM (inactive)"


Note down GI50 recorded for CC(=O)c1cccc(NC(=O)C(=O)C(C(=O)c2ccccc2F)C2OC(=O)c3ccccc32)c1 (centres undefined) 65.3 µM (inactive)

Please give measured GI50 of the following entry: CC1(C)Oc2ccccc2OC1O (centres undefined) > 100 µM (inactive)

Write down GI50 measured for item O=C(O)C(Br)C(Br)C(=O)O (centres undefined) > 100 µM (inactive)

Given the molecule N#Cc1c(C(N)=O)ncn1Cc1ccccc1 , write its reported GI50. > 100 µM (inactive)

Answer with the recorded GI50 for the molecule listed here: NC(=O)c1cn(C2OC(CO)C(O)C2O)c(=O)[nH]c1=O (centres undefined) > 100 µM (inactive)

Look up and report measured GI50 for this entry: COC(=O)c1ncc2c(=O)[nH]c3ccccc3c2c1C(=O)OC > 100 µM (inactive)

Give the reported GI50 for this molecule. Clc1ccc(C2=C(c3ccccc3)C(c3ccc(Cl)cc3)N3C(=N[C@H]4CCCC[C@@H]43)N2)cc1 (some centres undefined) 16.1 µM (inactive)
